Values from patent US20110166062A1

SYSTEM_NAME: GLP-1 receptor (UniProt P43220 24-463, limits assumed)
MEASUREMENT_NOTES: cell-based or functional assay
Bridges are numbered along the chain shown (N, C = ends). Primed or numbered codes have the meaning given here. Where no end group is shown, it is not given here. Side-chain parts run from the residue outwards. [ ]: non-standard residue; d: D form. maleimide = maleimide group on activated PEG, it reacts with the Cys thiol (Michael addition) to give a thioether linkage; PEG 40 kDa″ = polyethylene glycol of 40 kDa covalently attached to the side chain; PEG 40 kDa = PEG (40 kDa) covalently attached to Cys; Aib = CC(C)(N)C(=O)O
Assign MET to entries whose relative activity meets or exceeds 6%; assign NOT MET to the rest.

Q. Threshold query (relative activity >= 6%) on FTSDYSIYLDEQAAKEFVNWLLAGGPSSGAPPPS-NH2 (not fully specified) [mt-192]
A. NOT MET

Q. How about this binder: Y[Aib]QGTFTSDYSIYLDEQAAKEFVC(PEG 40 kDa)WLLAG-NH2 (lactam 16-20) [mt-172]
A. NOT MET

Q. How about this binder: Y[Aib]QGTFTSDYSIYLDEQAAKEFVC(PEG 40 kDa″)WLMNG-NH2 (lactam 16-20) [mt-186]
A. NOT MET

Q. How about this binder: Y[Aib]EGTFTSDYSIYLDEQAAKEFVNWLLAGGPSSGAPPPSC([maleimide-PEG 40 kDa])-NH2 (lactam 16-20) [mt-178]
A. MET

Q. How about this binder: Y[Aib]QGTFTSEYSKYLDEQAAKEFVNWLLAGGPSSGAPPPSC-NH2 (lactam 9-12, 16-20; not fully specified) [mt-209]
A. NOT MET

Q. How about this binder: Y[Aib]QGTFTSDYSIYLDEQAAKEFVNWLLAGKGKKNWLKHNITQC-NH2 (lactam 16-20) [mt-207]
A. MET
